For each entry below, report its pIC50 value.
- TARGET_OR_TEST_SYSTEM: His-AKT (Full Length) (Homo sapiens (Human), UniProt P31749)
- Sequence (P31749 whole entry): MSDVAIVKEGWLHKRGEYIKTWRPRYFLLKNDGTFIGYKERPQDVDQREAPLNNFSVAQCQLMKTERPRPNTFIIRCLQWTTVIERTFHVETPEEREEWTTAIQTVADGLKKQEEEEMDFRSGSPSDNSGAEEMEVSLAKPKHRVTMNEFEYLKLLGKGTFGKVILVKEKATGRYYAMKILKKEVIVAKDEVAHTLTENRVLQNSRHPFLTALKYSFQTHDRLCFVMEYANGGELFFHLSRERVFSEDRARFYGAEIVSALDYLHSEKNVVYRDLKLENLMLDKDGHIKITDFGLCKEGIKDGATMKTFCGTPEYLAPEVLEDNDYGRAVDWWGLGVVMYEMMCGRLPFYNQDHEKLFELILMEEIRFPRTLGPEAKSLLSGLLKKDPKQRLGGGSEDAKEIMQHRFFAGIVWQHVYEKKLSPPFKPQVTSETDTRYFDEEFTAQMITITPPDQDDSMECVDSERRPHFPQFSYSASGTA
- PROTOCOL: AKT enzyme assay
- Assay type: biochemical
- DETAILS: read-out: IC50 AKT
Give bare numbers, as −log10 of the molar value.

Look over these answered cases.
- CCOc1c(N)ncnc1N1CCC(c2nc(-c3ccc(F)c(C(F)(F)F)c3)cn2CC2CNC2)CC1: 8.30
- NC(=O)c1c(N)ncnc1N1CCC(c2nc(-c3ccc(F)c(C(F)(F)F)c3)cn2C2CCNC2)CC1 (stereo not shown): 7.00
- Cn1cc(-c2ccc(F)c(C(F)(F)F)c2)nc1C1CCN(c2ncnc(N)c2-c2ccc(N)nc2)CC1: 5.57

Now for another entry.
Incoming: pIC50 for CCO/C=C/c1c(N)ncnc1N1CCC(c2nc(-c3ccc(F)c(C(F)(F)F)c3)cn2CCN(C)C)CC1 ?
Outgoing: 8.40

* * *

- TARGET_OR_TEST_SYSTEM: His-AKT (Full Length) (Homo sapiens (Human))
- PROTOCOL: AKT enzyme assay
- Format: biochemical
- DETAILS: read-out: IC50 AKT
pIC50: −log10 of the molar value.
Label true when pIC50 is at or above 8; anything below gets false.

Incoming: Test whether the compound Nc1ncnc(N2CCC(c3nc(-c4ccnc(C(F)(F)F)c4)cn3CCN3CCC3)CC2)c1Cl records pIC50 of 8 or higher.
Outgoing: true

Incoming: Does the reported pIC50 for Cc1cc(-c2cn(CC3CNC3)c(C3CCN(c4ncnc(N)c4C(C)C)CC3)n2)ccc1F fall at or above the 8 mark?
Outgoing: true

Incoming: Threshold query (pIC50 >= 8) on Cn1cc(-c2ccc(F)c(C(F)(F)F)c2)nc1C1CCN(c2ncnc(N)c2-c2ccc(C#N)cc2)CC1
Outgoing: true

Incoming: Is pIC50 for COC/C=C/c1c(N)ncnc1N1CCC(c2nc(-c3ccc(F)c(C(F)(F)F)c3)cn2C)CC1 at or above 8?
Outgoing: false

Incoming: Could you please find out whether CCc1c(N)ncnc1N1CCC(c2nc(-c3ccc(F)cc3)cn2CCN2CCCC2)CC1 has pIC50 that meets 8 or exceeds it?
Outgoing: false

* * *

- TARGET_OR_TEST_SYSTEM: P70S6K (T412E mutant) (Homo sapiens (Human), UniProt P23443, T412E)
- Sequence (P23443 whole entry T412E): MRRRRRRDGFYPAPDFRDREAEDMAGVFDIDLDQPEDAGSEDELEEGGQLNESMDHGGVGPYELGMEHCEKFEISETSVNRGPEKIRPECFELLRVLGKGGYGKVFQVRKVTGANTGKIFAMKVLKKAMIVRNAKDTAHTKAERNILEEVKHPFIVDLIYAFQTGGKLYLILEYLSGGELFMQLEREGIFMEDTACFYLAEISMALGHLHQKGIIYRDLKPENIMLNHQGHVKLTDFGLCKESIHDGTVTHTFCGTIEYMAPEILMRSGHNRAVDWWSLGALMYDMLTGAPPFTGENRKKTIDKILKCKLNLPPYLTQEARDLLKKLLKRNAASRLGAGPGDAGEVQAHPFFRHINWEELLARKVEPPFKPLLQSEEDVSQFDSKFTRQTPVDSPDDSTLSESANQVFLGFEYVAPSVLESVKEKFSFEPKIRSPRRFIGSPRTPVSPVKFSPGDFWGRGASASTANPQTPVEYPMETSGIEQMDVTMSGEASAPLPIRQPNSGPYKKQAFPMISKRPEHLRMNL
- PROTOCOL: P70S6K enzyme assay
- Format: biochemical
- DETAILS: read-out: IC50 p70S6K
ASSAY_ENDPOINT: pIC50
One number for each entry, as −log10 of the molar value.

Please go through the list and note pIC50 for each compound.
1. NC(=O)c1c(N)ncnc1N1CCC(c2nc(-c3cnoc3)cn2CCN2CCC2)CC1
2. Nc1ncnc(N2CCC(c3nc(-c4ccc(F)c(C(F)(F)F)c4)cn3CCN3CCC3)CC2)c1Cl
3. CCOc1c(N)ncnc1N1CCC(c2nc(-c3ccc(F)c(C(F)(F)F)c3)cn2CCN2CCC2)CC1
4. CCN(CC)CCn1cc(-c2ccc(F)c(C)c2)nc1C1CCN(c2ncnc(N)c2OC(C)C)CC1

Outgoing:
1: 6.07; 2: 9.22; 3: 8.62; 4: 8.34

* * *

Answer each item with its documented pIC50.
- TARGET_OR_TEST_SYSTEM: P70S6K (T412E mutant) (Homo sapiens (Human), UniProt P23443, T412E)
- PROTOCOL: P70S6K enzyme assay
- Type: biochemical
- DETAILS: read-out: IC50 p70S6K
Answers are plain numbers, as −log10 of the molar value.

• CCc1c(N)ncnc1N1CCC(c2nc(-c3cncc(Cl)c3)cn2CCN2CCC2)CC1 = 8.12
• Cc1ccc(-c2c(N)ncnc2N2CCC(c3nc(-c4ccc(F)c(C(F)(F)F)c4)cn3C)CC2)cn1 = 8.66
• Cc1cc(-c2cn(CCNC(C)C)c(C3CCN(c4ncnc(N)c4C(N)=O)CC3)n2)ccc1F = 8.62
• Cn1cc(-c2ccc(F)c(C(F)(F)F)c2)nc1C1CCN(c2ncnc(N)c2Br)CC1 = 8.68
• CC(C)(C)NCCn1cc(-c2ccc(F)c(C(F)(F)F)c2)nc1C1CCN(c2ncnc(N)c2C#N)CC1 = 8.89
• NC(=O)c1c(N)ncnc1N1CCC(c2nc(-c3ccsc3)cn2CCN2CCC2)CC1 = 8.22
• Nc1ncnc(N2CCC(c3nc(-c4ccc(Cl)cc4)cn3CCN3CCCC3)CC2)c1C1CCC1 = 7.60

Note: attention shifts to another entry.
Incoming: Data request, read-out pIC50, for CC(C)CNCCn1cc(-c2ccc(F)c(C(F)(F)F)c2)nc1C1CCN(c2ncnc(N)c2C(N)=O)CC1
Outgoing: 8.54
